Target: HLA-A*6801 (human)
Experiment: competition with 125I-labelled standard peptide on purified HLA, gel filtration
Settings: remark: other sources report otherwise
Mark rule not met for binding affinity ratio (IC50 of standard peptide / IC50 of test peptide) values under 0.04, and rule met for everything at or above.

Past entries and their recorded results:
Textbook exercise: given the entry SAICSVVR (modifications not checked) [HBV POL 520 8-mer peptide SAICSVVR (SEQ ID NO: 652)] , state whether its binding affinity ratio (IC50 of standard peptide / IC50 of test peptide) is greater than or equal to 0.04.
rule met

Form field: binding affinity ratio (IC50 of standard peptide / IC50 of test peptide) at least 0.04? Entry: TLWKAGILYKR (modifications not checked) [HBV POL 150 11-mer peptide … (SEQ ID NO: 666)]
rule met

Threshold query (binding affinity ratio (IC50 of standard peptide / IC50 of test peptide) >= 0.04) on TSAICSVVR (modifications not checked) [HBV POL 519 9-mer peptide … (SEQ ID NO: 667)]
rule met

Textbook exercise: given the entry TLPETTVVR (modifications not checked) [HBV NUC 171 9-mer peptide … (SEQ ID NO: 662)] , state whether its binding affinity ratio (IC50 of standard peptide / IC50 of test peptide) is greater than or equal to 0.04.
rule not met

Further cases:
Could you please find out whether SAGPCALR (modifications not checked) [HBV X 65 8-mer peptide SAGPCALR (SEQ ID NO: 651)] has binding affinity ratio (IC50 of standard peptide / IC50 of test peptide) that meets 0.04 or exceeds it?
rule not met

Decide: is the reported value of binding affinity ratio (IC50 of standard peptide / IC50 of test peptide) for TAELLAACFAR (modifications not checked) [HBV POL 716 11-mer peptide … (SEQ ID NO: 661)] equal to or greater than 0.04?
rule met
